Recorded values, source ChEMBL document CHEMBL1147572.

Molecular target: UniProt:O15120
Sequence (O15120 whole entry): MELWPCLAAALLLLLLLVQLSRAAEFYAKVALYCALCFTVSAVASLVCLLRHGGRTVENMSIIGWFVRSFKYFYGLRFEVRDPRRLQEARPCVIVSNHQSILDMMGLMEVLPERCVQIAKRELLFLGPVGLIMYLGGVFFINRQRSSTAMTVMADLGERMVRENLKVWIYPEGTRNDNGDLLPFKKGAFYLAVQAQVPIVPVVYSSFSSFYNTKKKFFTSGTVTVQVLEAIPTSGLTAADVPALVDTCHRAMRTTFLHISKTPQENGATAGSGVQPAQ
pIC50: −log10 of the molar value.
Threshold check on pIC50: at or above 6 gives true (1), strictly below gives false (0).

Input: Would you say COc1ccc(Cl)cc1-c1cc(N)nc(Nc2ccc(Br)cc2)n1 shows pIC50 at minimum 6?
Output: false (0)

Input: Another compound to check: Cc1ccc(Cl)cc1-c1cc(Nc2cccc(Br)c2)nc(N)n1
Output: true (1)

Input: Another compound to check: COc1ccc(Cl)cc1-c1cc(Nc2ccc(Br)cc2)nc(N)n1
Output: true (1)

Input: Another compound to check: CCOc1ccc(Br)cc1-c1cc(Nc2ccc(B(O)O)cc2)nc(N)n1
Output: true (1)

Input: Another compound to check: CCOc1ccc(Br)cc1-c1cc(Nc2ccc(CC(=O)NO)cc2)nc(N)n1
Output: true (1)
